TEST DESCRIPTION: Mouse PK cassette (5 mg/kg, I.P.)
EXPERIMENTAL SETUP: mouse, I.P., cassette
Listed below: Plasma t1/2 values for each entry.
Please format your answer as a value with the unit trailing.

# lookup: Plasma t1/2 of `CN1C2CC1CN(c1ccc(Nc3ncc4ccn(CC5CCOCC5)c4n3)cc1)C2`
42 min

---

TESTED SYSTEM: NUAK2 (Homo sapiens)
Construct: purchased MRC PPU
Sequence (Q9H093 whole entry): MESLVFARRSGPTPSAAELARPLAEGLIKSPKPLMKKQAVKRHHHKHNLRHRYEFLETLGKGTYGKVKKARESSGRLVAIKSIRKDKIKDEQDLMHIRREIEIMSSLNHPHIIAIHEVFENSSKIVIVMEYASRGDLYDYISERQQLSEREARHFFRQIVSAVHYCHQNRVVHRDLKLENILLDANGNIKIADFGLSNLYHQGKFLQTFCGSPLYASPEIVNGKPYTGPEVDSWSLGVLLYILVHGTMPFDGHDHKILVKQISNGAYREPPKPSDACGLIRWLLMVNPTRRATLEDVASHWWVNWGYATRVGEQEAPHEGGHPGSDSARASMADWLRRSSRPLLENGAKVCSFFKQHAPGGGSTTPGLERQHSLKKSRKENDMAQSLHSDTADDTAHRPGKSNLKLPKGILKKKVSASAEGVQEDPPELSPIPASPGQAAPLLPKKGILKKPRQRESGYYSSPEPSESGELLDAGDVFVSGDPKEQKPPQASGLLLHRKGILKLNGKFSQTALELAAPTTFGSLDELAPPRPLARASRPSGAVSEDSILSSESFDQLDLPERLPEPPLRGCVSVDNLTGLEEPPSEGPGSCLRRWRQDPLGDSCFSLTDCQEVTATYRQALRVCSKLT
TEST DESCRIPTION: ADP-Glo biochemical assay NUAK2
EXPERIMENTAL SETUP: NUAK2 IC50/NUAK1 IC50
RESULT TYPE: NUAK2 Fold selectivity IC50/NUAK1 IC50 (fold)
Kindly answer with a numeric value in fold, unit omitted.

Recorded NUAK2 Fold selectivity IC50/NUAK1 IC50, per entry:
>  <COMPOUND>
Cc1cc(=O)n(C2CCCC2)c2nc(Nc3ccc(N4CCN(C)CC4)cc3)ncc12

>  <TESTED SYSTEM>
NUAK2 (Homo sapiens)

>  <NUAK2 Fold selectivity IC50/NUAK1 IC50 (fold)>
6

$$$$
>  <COMPOUND>
CN1C2CC1CN(c1ccc(Nc3ncc4cc(C#N)c(=O)n(C5CCCC5)c4n3)cc1)C2

>  <TESTED SYSTEM>
NUAK2 (Homo sapiens)

>  <NUAK2 Fold selectivity IC50/NUAK1 IC50 (fold)>
7

$$$$

// lookup NUAK2 Fold selectivity IC50/NUAK1 IC50 | system=NUAK2 (Homo sapiens) | key= `CC(C)N1CCN(c2ccc(Nc3ncc4c(n3)N(C3CCCC3)C(=O)C4)cc2)CC1`
34

// lookup NUAK2 Fold selectivity IC50/NUAK1 IC50 | system=NUAK2 (Homo sapiens) | key= CC(C)N1CCN(c2ccc(Nc3ncc4ccn(CC5CCCO5)c4n3)cc2)CC1 (stereo not shown)
4

// lookup NUAK2 Fold selectivity IC50/NUAK1 IC50 | system=NUAK2 (Homo sapiens) | key= CN1C2CC1CN(c1ccc(Nc3ncc4ccn(CC5CCCO5)c4n3)cc1)C2 (stereo not shown)
10

// lookup NUAK2 Fold selectivity IC50/NUAK1 IC50 | system=NUAK2 (Homo sapiens) | key= CC(C)N1CCN(c2ccc(Nc3ncc4ccn(CC5CCOC(C)(C)C5)c4n3)cc2)CC1 (stereo not shown)
14

// lookup NUAK2 Fold selectivity IC50/NUAK1 IC50 | system=NUAK2 (Homo sapiens) | key= `CC(C)N1CCN(c2ccc(Nc3ncc4ccn(C5CCCC5)c4n3)cc2)CC1`
10

// lookup NUAK2 Fold selectivity IC50/NUAK1 IC50 | system=NUAK2 (Homo sapiens) | key= `CN1C2CC1CN(c1ccc(Nc3ncc4ccn(CC5CCOCC5)c4n3)cc1)C2`
9

// lookup NUAK2 Fold selectivity IC50/NUAK1 IC50 | system=NUAK2 (Homo sapiens) | key= `Cc1cc(=O)n(C2CCCC2)c2nc(Nc3ccc(N4CC5CC(C4)N5C)cc3)ncc12`
3

// lookup NUAK2 Fold selectivity IC50/NUAK1 IC50 | system=NUAK2 (Homo sapiens) | key= `Cc1cc(=O)n(C(C)C)c2nc(Nc3ccc(N4CC5CC(C4)N5C)cc3)ncc12`
3

---

TEST DESCRIPTION: in vivo
EXPERIMENTAL SETUP: male, CD-1, mouse, ip, 5 mg/kg
RESULT TYPE: concentration at 30 min (ng/mL)
Kindly answer with a numeric value in ng/mL, unit omitted.

>  <COMPOUND>
Cc1cc(=O)n(C2CCCC2)c2nc(Nc3ccc(N4CC5CC(C4)N5C)cc3)ncc12 [Compound 9]

>  <concentration at 30 min, ng/mL>
573

$$$$
>  <COMPOUND>
CN1C2CC1CN(c1ccc(Nc3ncc4cc(C#N)c(=O)n(C5CCCC5)c4n3)cc1)C2 [Compound 10]

>  <concentration at 30 min, ng/mL>
293

$$$$

Next compound, concentration at 30 min to be filled in.
# lookup: concentration at 30 min of CN1C2CC1CN(c1ccc(Nc3ncc4ccn(CC5CCOCC5)c4n3)cc1)C2 [Compound 24]
220

---

Listed below: MARK3 pIC50 values for each entry.
TESTED SYSTEM: MARK3 (Homo sapiens)
Construct: purchased MRC PPU
Sequence (P27448 whole entry): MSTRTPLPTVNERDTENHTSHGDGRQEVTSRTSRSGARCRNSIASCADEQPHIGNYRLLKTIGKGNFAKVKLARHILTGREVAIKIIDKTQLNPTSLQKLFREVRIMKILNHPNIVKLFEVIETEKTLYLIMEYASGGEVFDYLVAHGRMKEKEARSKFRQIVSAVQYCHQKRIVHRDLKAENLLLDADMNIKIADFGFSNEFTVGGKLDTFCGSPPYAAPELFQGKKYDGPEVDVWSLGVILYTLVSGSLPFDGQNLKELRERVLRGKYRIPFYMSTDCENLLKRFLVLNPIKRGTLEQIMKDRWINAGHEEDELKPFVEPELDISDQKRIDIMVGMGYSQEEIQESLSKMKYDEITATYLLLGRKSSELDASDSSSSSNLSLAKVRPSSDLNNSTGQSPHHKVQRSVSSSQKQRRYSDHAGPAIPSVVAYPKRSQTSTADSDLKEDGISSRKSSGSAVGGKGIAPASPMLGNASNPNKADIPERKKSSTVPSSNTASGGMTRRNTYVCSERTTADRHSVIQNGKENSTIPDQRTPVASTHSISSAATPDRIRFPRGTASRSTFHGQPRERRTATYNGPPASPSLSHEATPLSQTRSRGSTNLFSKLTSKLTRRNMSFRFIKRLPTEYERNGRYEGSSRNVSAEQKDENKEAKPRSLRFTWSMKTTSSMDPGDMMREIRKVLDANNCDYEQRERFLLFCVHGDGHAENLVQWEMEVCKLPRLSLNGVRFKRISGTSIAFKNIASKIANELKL
TEST DESCRIPTION: ADP-Glo biochemical assay MARK3
EXPERIMENTAL SETUP: ADP-Glo assay
The reply should be a number, written without any unit.

Recorded MARK3 pIC50, per entry:
>  <MOLECULE>
Cc1cc(=O)n(C2CCCC2)c2nc(Nc3ccc(N4CCN(C(C)C)CC4)cc3)ncc12

>  <MARK3 pIC50>
6.5

$$$$
>  <MOLECULE>
Cc1cc(=O)n(C(C)C)c2nc(Nc3ccc(N4CC5CC(C4)N5C)cc3)ncc12

>  <MARK3 pIC50>
6.0

$$$$
>  <MOLECULE>
CN1CCN(c2ccc(Nc3ncc4cc(C#N)c(=O)n(C5CCCC5)c4n3)cc2)CC1 [Compound 3, Narazaciclib, reference compound]

>  <MARK3 pIC50>
5.8

$$$$
>  <MOLECULE>
CN1CCN(c2cccc(Nc3ncc4cc(C#N)c(=O)n(C5CCCC5)c4n3)c2)CC1

>  <MARK3 pIC50>
5.9

$$$$

Next molecule, MARK3 pIC50 to be filled in.
# lookup: MARK3 pIC50 of `CN1CCN(c2ccc(Nc3ncc4ccn(C)c4n3)cc2)CC1`
5.8

---

TESTED SYSTEM: MARK1 (Homo sapiens, UniProt Q9P0L2)
Construct: purchased MRC PPU
Sequence (Q9P0L2 whole entry): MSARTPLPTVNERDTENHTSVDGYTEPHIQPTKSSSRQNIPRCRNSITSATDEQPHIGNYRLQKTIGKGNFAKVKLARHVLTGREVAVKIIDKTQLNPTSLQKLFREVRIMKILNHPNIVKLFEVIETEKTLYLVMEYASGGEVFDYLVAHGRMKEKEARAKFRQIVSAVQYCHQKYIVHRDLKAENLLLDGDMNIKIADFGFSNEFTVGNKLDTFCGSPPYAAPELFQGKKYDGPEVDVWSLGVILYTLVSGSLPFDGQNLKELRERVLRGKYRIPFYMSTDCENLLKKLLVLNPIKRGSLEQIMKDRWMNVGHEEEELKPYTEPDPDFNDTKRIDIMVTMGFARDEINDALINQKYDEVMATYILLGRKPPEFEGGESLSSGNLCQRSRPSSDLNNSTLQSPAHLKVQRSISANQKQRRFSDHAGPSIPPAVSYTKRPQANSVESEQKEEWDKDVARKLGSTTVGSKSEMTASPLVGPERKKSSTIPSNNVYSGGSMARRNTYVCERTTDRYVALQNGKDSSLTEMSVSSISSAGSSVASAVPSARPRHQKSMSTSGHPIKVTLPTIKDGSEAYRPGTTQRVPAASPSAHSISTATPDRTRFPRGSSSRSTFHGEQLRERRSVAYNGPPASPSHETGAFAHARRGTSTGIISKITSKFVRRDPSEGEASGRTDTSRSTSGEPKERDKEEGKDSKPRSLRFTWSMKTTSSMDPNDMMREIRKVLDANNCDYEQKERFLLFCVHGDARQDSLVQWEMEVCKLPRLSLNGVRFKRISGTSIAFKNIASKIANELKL
TEST DESCRIPTION: ADP-Glo biochemical assay MARK1
EXPERIMENTAL SETUP: MARK1 IC50/NUAK1 IC50
Parameter threshold = 600 fold. Response is met when MARK1 Fold selectivity IC50/NUAK1 IC50 meets or exceeds it, else not met.

>  <COMPOUND>
CN1C2CC1CN(c1ccc(Nc3ncc4ccn(CC5CCOCC5)c4n3)cc1)C2

>  <TESTED SYSTEM>
MARK1 (Homo sapiens, UniProt Q9P0L2)

>  <CAT>
met

$$$$
>  <COMPOUND>
CC(C)N1CCN(c2ccc(Nc3ncc4ccn(CC5CCOC(C)(C)C5)c4n3)cc2)CC1 (stereo not shown)

>  <TESTED SYSTEM>
MARK1 (Homo sapiens, UniProt Q9P0L2)

>  <CAT>
met

$$$$
>  <COMPOUND>
CN1CCN(c2ccc(Nc3ncc4cc(C#N)c(=O)n(C5CCCC5)c4n3)cc2)CC1 [Compound 3, Narazaciclib, reference compound]

>  <TESTED SYSTEM>
MARK1 (Homo sapiens, UniProt Q9P0L2)

>  <CAT>
not met

$$$$
>  <COMPOUND>
CC(C)N1CCN(c2ccc(Nc3ncc4ccn(CC5CCOCC5)c4n3)cc2)CC1

>  <TESTED SYSTEM>
MARK1 (Homo sapiens, UniProt Q9P0L2)

>  <CAT>
met

$$$$
>  <COMPOUND>
Cc1cc(=O)n(C2CCCC2)c2nc(Nc3ccc(N4CCN(C)CC4)cc3)ncc12

>  <TESTED SYSTEM>
MARK1 (Homo sapiens, UniProt Q9P0L2)

>  <CAT>
met

$$$$
>  <COMPOUND>
CN1C2CC1CN(c1ccc(Nc3ncc4ccn(CC5CCCO5)c4n3)cc1)C2 (stereo not shown)

>  <TESTED SYSTEM>
MARK1 (Homo sapiens, UniProt Q9P0L2)

>  <CAT>
met

$$$$

For this compound, is measured MARK1 Fold selectivity IC50/NUAK1 IC50 600 fold or higher? `Cc1cc(=O)n(C2CCCC2)c2nc(Nc3ccc(N4CCN(C(C)C)CC4)cc3)ncc12`
met

For this compound, is measured MARK1 Fold selectivity IC50/NUAK1 IC50 600 fold or higher? CC(C)N1CCN(c2ccc(Nc3ncc4ccn(CC5CCCO5)c4n3)cc2)CC1 (stereo not shown)
not met

For this compound, is measured MARK1 Fold selectivity IC50/NUAK1 IC50 600 fold or higher? `CC(C)N1CCN(c2ccc(Nc3ncc4ccn(C5CCCC5)c4n3)cc2)CC1`
not met

For this compound, is measured MARK1 Fold selectivity IC50/NUAK1 IC50 600 fold or higher? `CC(C)N1CCN(c2ccc(Nc3ncc4c(n3)N(C3CCCC3)C(=O)C4)cc2)CC1`
met

---

TESTED SYSTEM: MARK2 (Homo sapiens, UniProt Q7KZI7)
Construct: purchased MRC PPU
Sequence (Q7KZI7 whole entry): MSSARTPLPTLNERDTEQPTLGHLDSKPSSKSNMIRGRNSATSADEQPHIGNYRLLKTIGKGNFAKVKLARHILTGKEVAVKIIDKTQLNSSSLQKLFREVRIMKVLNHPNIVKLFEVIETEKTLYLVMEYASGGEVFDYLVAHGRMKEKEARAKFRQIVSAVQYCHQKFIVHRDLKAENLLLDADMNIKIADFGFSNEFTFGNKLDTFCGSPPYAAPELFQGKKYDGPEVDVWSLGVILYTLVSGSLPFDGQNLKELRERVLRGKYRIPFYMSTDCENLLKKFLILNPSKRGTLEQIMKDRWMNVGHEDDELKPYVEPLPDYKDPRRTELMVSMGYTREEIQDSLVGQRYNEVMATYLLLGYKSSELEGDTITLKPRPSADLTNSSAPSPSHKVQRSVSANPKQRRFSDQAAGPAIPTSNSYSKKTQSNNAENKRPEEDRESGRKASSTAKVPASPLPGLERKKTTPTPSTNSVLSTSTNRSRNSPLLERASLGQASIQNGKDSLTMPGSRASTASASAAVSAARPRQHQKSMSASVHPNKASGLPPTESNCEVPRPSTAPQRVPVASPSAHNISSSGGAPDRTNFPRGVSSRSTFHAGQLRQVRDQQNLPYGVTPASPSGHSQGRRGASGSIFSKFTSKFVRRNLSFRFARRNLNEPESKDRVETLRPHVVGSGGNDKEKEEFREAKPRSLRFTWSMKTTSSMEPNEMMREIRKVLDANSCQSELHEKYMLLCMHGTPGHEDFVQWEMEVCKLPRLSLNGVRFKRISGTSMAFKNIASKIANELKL
TEST DESCRIPTION: ADP-Glo biochemical assay MARK2
EXPERIMENTAL SETUP: MARK2 IC50/NUAK1 IC50
Listed below: MARK2 Fold selectivity IC50/NUAK1 IC50 values for each entry.
Please format your answer as a value with the unit trailing.

Recorded MARK2 Fold selectivity IC50/NUAK1 IC50, per entry:
>  <COMPOUND>
CN1C2CC1CN(c1ccc(Nc3ncc4ccn(CC5CCOCC5)c4n3)cc1)C2 [Compound 24]

>  <MARK2 Fold selectivity IC50/NUAK1 IC50>
4898 fold

$$$$
>  <COMPOUND>
CC(C)N1CCN(c2ccc(Nc3ncc4ccn(C5CCCC5)c4n3)cc2)CC1 [Compound 8]

>  <MARK2 Fold selectivity IC50/NUAK1 IC50>
417 fold

$$$$
>  <COMPOUND>
CN1C2CC1CN(c1ccc(Nc3ncc4ccn(CC5CCCO5)c4n3)cc1)C2 (stereo not shown) [Compound 28]

>  <MARK2 Fold selectivity IC50/NUAK1 IC50>
1047 fold

$$$$
>  <COMPOUND>
CC(C)N1CCN(c2ccc(Nc3ncc4ccn(CC5CCCO5)c4n3)cc2)CC1 (stereo not shown) [Compound 27]

>  <MARK2 Fold selectivity IC50/NUAK1 IC50>
603 fold

$$$$
>  <COMPOUND>
CN1CCN(c2ccc(Nc3ncc4cc(C#N)c(=O)n(C5CCCC5)c4n3)cc2)CC1 [Compound 3, Narazaciclib, reference compound]

>  <MARK2 Fold selectivity IC50/NUAK1 IC50>
603 fold

$$$$

// lookup MARK2 Fold selectivity IC50/NUAK1 IC50 | system=MARK2 (Homo sapiens, UniProt Q7KZI7) | key= Cc1cc(=O)n(C2CCCC2)c2nc(Nc3ccc(N4CCN(C)CC4)cc3)ncc12 [Compound 4]
741 fold

// lookup MARK2 Fold selectivity IC50/NUAK1 IC50 | system=MARK2 (Homo sapiens, UniProt Q7KZI7) | key= CC(C)N1CCN(c2ccc(Nc3ncc4ccn(CC5CCOCC5)c4n3)cc2)CC1 [Compound 25]
2754 fold

// lookup MARK2 Fold selectivity IC50/NUAK1 IC50 | system=MARK2 (Homo sapiens, UniProt Q7KZI7) | key= CC(C)N1CCN(c2ccc(Nc3ncc4c(n3)N(C3CCCC3)C(=O)C4)cc2)CC1 [Compound 7]
1072 fold

// lookup MARK2 Fold selectivity IC50/NUAK1 IC50 | system=MARK2 (Homo sapiens, UniProt Q7KZI7) | key= CC(C)N1CCN(c2ccc(Nc3ncc4ccn(CC5CCOC(C)(C)C5)c4n3)cc2)CC1 (stereo not shown) [Compound 26]
4074 fold

// lookup MARK2 Fold selectivity IC50/NUAK1 IC50 | system=MARK2 (Homo sapiens, UniProt Q7KZI7) | key= Cc1cc(=O)n(C2CCCC2)c2nc(Nc3ccc(N4CCN(C(C)C)CC4)cc3)ncc12 [Compound 5]
1259 fold
